assay: Microsome metabolic stability, mice; type: in vitro ADME; details: mouse; mice liver microsomes, 1 μM compound, 0.5 mg/mL; read-out: MMS CLint(liver)-M
Quantity name: CLint scaled at 1 μM (mL/min/kg)
Could you give me the number in mL/min/kg? Just the number is fine.

Query: Quick one: CLint scaled at 1 μM for CCN1CCN(Cc2cc(F)c(NC(=O)Cc3ccc(-c4cnc5cc(OC)c(OC)cc5c4)nc3)cc2C(F)(F)F)CC1 [Compound 1] ?
Response: 88.5

---

assay: Microsome metabolic stability, human; format: in vitro ADME; settings: human liver microsomes, 1 μM compound, 0.5 mg/mL; read-out: MMS CLint(liver)-H
Quantity name: CLint scaled at 1 μM (mL/min/kg)
Could you give me the number in mL/min/kg? Just the number is fine.

Query: Quick one: CLint scaled at 1 μM for "CCN1CCN(Cc2cc(F)c(NC(=O)Cc3ccc(-c4cnc5cc(OC)c(OC)cc5c4)nc3)cc2C(F)(F)F)CC1" ?
Response: 20.7
